Quick reference: pIC50 of the listed items.
system: HCC827 cells (EGFR Exon19 del, non-small cell lung cancer cells); assay: Cell viability assay (WST/CCK8), HCC827 cells; format: cell-based; settings: Homo sapiens, HCC827, 72 h, HCC827 (Exon19 Del), 72 hours, WST (CCK8); read-out: IC50 (half inhibitory concentration)
Conceptually, pIC50 converts a concentration in mol/L into minus its log10.

Here's what some known entries look like.
compound | pIC50
COc1cc2ncnc(Nc3ccc(F)c(Cl)c3)c2cc1NC(=O)/C=C/CN1CCC(NC(=O)CCCCSc2cccc3c2CN(C2CCC(=O)NC2=O)C3=O)CC1 (centres unmarked) [SIAIS262113] | 7.31
COc1cc2ncnc(Nc3ccc(F)c(Cl)c3)c2cc1NC(=O)/C=C/CN1CCN(C(=O)CCOCCOCCOCCOCCNc2cccc3c2C(=O)N(C2CCC(=O)NC2=O)C3=O)CC1 (centres unmarked) [SIAIS262014] | 7.40

Need pIC50 of COc1cc2ncnc(Nc3ccc(F)c(Cl)c3)c2cc1NC(=O)/C=C/CN1CCN(C(=O)CCCCNc2cccc3c2C(=O)N(C2CCC(=O)NC2=O)C3=O)CC1 (centres unmarked) [SIAIS249048] , thanks.
8.49

Try the compound COc1cc2ncnc(Nc3ccc(F)c(Cl)c3)c2cc1NC(=O)/C=C/CN1CCC(N2CCN(C(=O)COc3cccc4c3CN(C3CCC(=O)NC3=O)C4=O)CC2)CC1 (centres unmarked) [SIAIS337025]
8.25

Try the compound COc1cc2ncnc(Nc3ccc(F)c(Cl)c3)c2cc1NC(=O)/C=C/CN1CCC(N2CCN(CCCCCCCCCCSc3cccc4c3CN(C3CCC(=O)NC3=O)C4=O)CC2)CC1 (centres unmarked) [SIAIS337039]
8.24

Try the compound COc1cc2ncnc(Nc3ccc(F)c(Cl)c3)c2cc1NC(=O)/C=C/CN1CCC(N2CCN(C(=O)CCc3cccc4c3CN(C3CCC(=O)NC3=O)C4=O)CC2)CC1 (centres unmarked) [SIAIS262052]
8.85

Try the compound COc1cc2ncnc(Nc3ccc(F)c(Cl)c3)c2cc1NC(=O)/C=C/CN1CCN(C(=O)COCCOCCOCCOCCSc2cccc3c2CN(C2CCC(=O)NC2=O)C3=O)CC1 (centres unmarked) [SIAIS262003]
6.98

Try the compound COc1cc2ncnc(Nc3ccc(F)c(Cl)c3)c2cc1NC(=O)/C=C/CN1CCCCC1 [dacomitinib, reference compound]
9.30

Try the compound COc1cc2ncnc(Nc3ccc(F)c(Cl)c3)c2cc1NC(=O)/C=C/CN1CCN(C(=O)CSc2cccc3c2CN(C2CCC(=O)NC2=O)C3=O)CC1 (centres unmarked) [SIAIS219185]
7.80

Try the compound COc1cc2ncnc(Nc3ccc(F)c(Cl)c3)c2cc1NC(=O)/C=C/CN1CCC(N2CCN(C(=O)CCN3CCN(CCC(=O)N[C@H](C(=O)N4C[C@H](O)C[C@H]4C(=O)NCc4ccc(-c5scnc5C)cc4)C(C)(C)C)CC3)CC2)CC1 [SIAIS249105]
7.27

Try the compound COc1cc2ncnc(Nc3ccc(F)c(Cl)c3)c2cc1NC(=O)/C=C/CN1CCC(N2CCN(CCCCCCOc3cccc4c3CN(C3CCC(=O)NC3=O)C4=O)CC2)CC1 (centres unmarked) [SIAIS337029]
9.52
